Cited source: patent US20200131144A1

Target: GST-LXRβ ligand-binding domain (Homo sapiens, UniProt P55055, INS174Q)
Construct: amino acids 156-461; NP009052
Assay: TR-FRETβ activity assay (NCoA3 coactivator peptide recruitment)
Details: 1 μM 24(S)-25-epoxycholesterol as prestimulating agonist; inverse agonist unless *
pEC50: −log10 of the molar value.
Would you kindly list pEC50 for each of these molecules?

Past entries and their recorded results:
query: Fill in pEC50 for record `N#Cc1ccc2ccccc2c1CN(Cc1ccc(-c2cccc(S(=O)(=O)CC(=O)O)c2)cc1)Cc1ccc(C(F)(F)F)o1`
result: 5.00 to 6.00

query: Fill in pEC50 for record `Cc1cc(C)c(CN(Cc2ccc(C(F)(F)F)o2)Cc2ccc(-c3cccc(S(=O)(=O)CC(=O)O)c3)cc2Cl)c(C)c1`
result: 5.00 to 6.00

query: Fill in pEC50 for record `CC(C)(C(=O)O)c1cccc(-c2ccc(CN(Cc3ccc(C(F)(F)F)o3)C(=O)c3cc(C4CC4)nc4ccccc34)cc2)c1`
result: 6.00 to 7.00

query: Fill in pEC50 for record `Cc1ccc2ccccc2c1CN(Cc1ccc(-c2cccc(C(C)(C)C(=O)O)n2)cc1)Cc1ccc(C(F)(F)F)o1`
result: 5.00 to 6.00

query: Fill in pEC50 for record `Cc1ccc2nc(C)cc(C(=O)N(Cc3ccc(-c4cccc(C(C)(C)C(=O)O)c4)cc3)Cc3ccc(C(F)(F)F)o3)c2c1`
result: 6.00 to 7.00

query: Fill in pEC50 for record `Cc1nc2ccccc2nc1CN(Cc1ccc(-c2cccc(C(C)(C)C(=O)O)c2)cc1)Cc1ccc(C(F)(F)F)o1`
result: < 5.00

Continuing:
query: Fill in pEC50 for record `Cc1nc2cccnc2c(C(=O)N(Cc2ccc(C(F)(F)F)o2)Cc2ccc(-c3cccc(C(C)(C)C(=O)O)c3)cc2F)c1C`
result: 6.00 to 7.00

====

Test: Short term HFD mouse model: liver and plasma exposure after multiple oral dosing
Type: in vivo, mice (C57BL/6J)
Conditions: C57BL/6J, plasma, HFD mice, three oral doses of 20 mg/kg each, 4 h after final dose, read-out: plasma exposure, 4 h
Classify as follows. Reported concentration at 4 h greater than or equal to 1 µM: Y. Reported concentration at 4 h below: N.

query: Is the recorded value of concentration at 4 h equal to or greater than 1 µM for this compound? `CCc1nc2ccccc2c(C(=O)N(Cc2ccc(-c3cccc(C(C)(C)C(=O)O)c3)cc2)Cc2ccc(C(F)(F)F)o2)c1C`
result: Y

Continuing:
query: Is the recorded value of concentration at 4 h equal to or greater than 1 µM for this compound? `Cc1ccc2ccccc2c1C(=O)N(Cc1ccc(-c2cccc(C(C)(C)C(=O)O)c2)cc1)Cc1ccc(C#N)o1`
result: Y

query: Is the recorded value of concentration at 4 h equal to or greater than 1 µM for this compound? `Cc1ccc2ccccc2c1C(=O)N(Cc1ccc(-c2cccc(C(C)(C)C(=O)O)c2)cc1)Cc1ccc(C(F)(F)F)o1`
result: Y

query: Is the recorded value of concentration at 4 h equal to or greater than 1 µM for this compound? `Cc1ccc2ccccc2c1C(=O)N(Cc1ccc(-c2cc(F)c(CO)c(S(=O)(=O)CC(=O)O)c2)cc1)Cc1ccc(C(F)(F)F)o1`
result: N

query: Is the recorded value of concentration at 4 h equal to or greater than 1 µM for this compound? `CCOC(=O)c1ccc(CN(Cc2ccc(-c3cccc(C(C)(C)C(=O)O)c3)cc2)C(=O)c2c(C)ccc3ccccc23)o1`
result: N

====

Would you kindly list pEC50 for each of these molecules?
Target: GST-LXRβ ligand-binding domain (Homo sapiens, UniProt P55055, INS174Q)
Construct: amino acids 156-461; NP009052
Assay: TR-FRETβ activity assay (NCoA3 coactivator peptide recruitment)
Conditions: 1 μM 24(S)-25-epoxycholesterol as prestimulating agonist; inverse agonist unless *
pEC50: −log10 of the molar value.

query: Fill in pEC50 for record Cc1cnc2cccnc2c1C(=O)N(Cc1ccc(C(F)(F)F)o1)Cc1ccc(-c2cccc(C(C)(C)C(=O)O)c2)cc1Cl [27/115]
result: 6.00 to 7.00

query: Fill in pEC50 for record Cc1cc(C)c(CN(Cc2ccc(-c3cc(F)c(CO)c(S(=O)(=O)CC(=O)O)c3)cc2)Cc2ccc(C(F)(F)F)o2)c(C)c1 [20/1]
result: 6.00 to 7.00

query: Fill in pEC50 for record CCNC(=O)c1ccc(CN(Cc2ncc(-c3cccc(C(C)C(=O)O)c3)cc2Cl)C(=O)c2c(C)c(C)nc3ccccc23)o1 (centres unmarked) [27/99]
result: 5.00 to 6.00

# batch size: 2; output pEC50 per entry
1. Cc1cc(C)c(CN(Cc2ccc(-c3cccc(S(=O)(=O)CC(=O)O)c3)cc2)Cc2ccc(C(F)(F)F)o2)c(C)c1C [27/34]
2. Cc1cc(C)c(CN(Cc2ccc(-c3ccc(CO)c(S(=O)(=O)CC(=O)O)c3)cc2)Cc2ccc(C(F)(F)F)o2)c(C)c1 [Example 12]

result:
1: 5.00 to 6.00; 2: 5.00 to 6.00

====

Would you kindly list pEC50 for each of these compounds?
Target: LXRβ full length (FL) (Homo sapiens, UniProt P55055, INS174Q)
Construct: the full length (FL) proteins of LXRα (amino acids 1-447); NP005684; NP009052
Sequence (P55055 with tags, fused parts or gaps INS174Q): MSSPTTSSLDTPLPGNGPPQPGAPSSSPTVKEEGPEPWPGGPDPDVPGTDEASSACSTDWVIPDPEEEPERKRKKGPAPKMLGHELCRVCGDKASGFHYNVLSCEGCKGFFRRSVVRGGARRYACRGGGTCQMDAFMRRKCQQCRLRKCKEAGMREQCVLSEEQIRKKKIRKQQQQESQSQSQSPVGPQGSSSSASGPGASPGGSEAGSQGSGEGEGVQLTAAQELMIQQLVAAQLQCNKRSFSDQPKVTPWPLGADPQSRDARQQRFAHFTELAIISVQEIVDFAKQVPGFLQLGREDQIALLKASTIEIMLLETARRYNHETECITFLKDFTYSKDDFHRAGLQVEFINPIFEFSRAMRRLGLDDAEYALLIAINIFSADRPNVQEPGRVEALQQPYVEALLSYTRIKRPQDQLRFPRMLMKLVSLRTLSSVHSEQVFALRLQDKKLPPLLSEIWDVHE
Assay: LXR Gal4 reporter transient transfection assay, mammalian two-hybrid, FL-M2H Gal4β
Conditions: HEK293 cells; inverse agonist unless *
pEC50: −log10 of the molar value.

Past entries and their recorded results:
query: Fill in pEC50 for record `Cc1nc2cccnc2c(C(=O)N(Cc2ccc(-c3cccc(C(C)(C)C(=O)O)c3)cc2)Cc2ccc(C#N)o2)c1C`
result: > 7.00

query: Fill in pEC50 for record `Cc1ccc2ccc(C)c(CN(Cc3ccc(-c4cccc(C(C)(C)C(=O)O)c4)cc3)Cc3ccc(C(F)(F)F)o3)c2c1`
result: > 7.00

query: Fill in pEC50 for record `Cc1ccc2ccccc2c1C(=O)N(Cc1ccc(-c2cccc(S(=O)(=O)Cc3nnn[nH]3)c2)cc1)Cc1ccc(C(F)(F)F)o1`
result: 6.00 to 7.00

query: Fill in pEC50 for record `Cc1ccc2ccccc2c1CN(Cc1ccc(-c2cccc(C(C)(C)C(=O)O)c2)cc1)Cc1ccc(C(F)(F)F)o1`
result: > 7.00

query: Fill in pEC50 for record `Cc1cnc2ccccc2c1C(=O)N(Cc1ccc(-c2cccc(C(C)(C)C(=O)O)c2)cc1)Cc1ccc(C(F)(F)F)o1`
result: > 7.00

# batch size: 4; output pEC50 per entry
1. COc1ccc2c(c1C(=O)N(Cc1ccc(-c3cccc(C(C)(C)C(=O)O)c3)cc1)Cc1ccc(C(F)(F)F)o1)CCCC2
2. Cc1nc2cccnc2c(C(=O)N(Cc2ccc(-c3cccc(C(C)(C)C(=O)O)c3)cc2)Cc2nc(C(F)(F)F)cs2)c1C
3. Cc1ccc2ccccc2c1C(=O)N(Cc1ccc(-c2cccc(S(=O)(=O)CC(=O)NS(C)(=O)=O)c2)cc1)Cc1ccc(C(F)(F)F)o1
4. Cc1cc(C)c(CC(=O)N(Cc2ccc(-c3cccc(S(=O)(=O)CC(=O)O)c3)cc2)Cc2ccc(C(F)(F)F)o2)c(C)c1

result:
["> 7.00", "> 7.00", "5.00 to 6.00", "5.00 to 6.00"]

# batch size: 5; output pEC50 per entry
1. Cc1nc2cccnc2c(C(=O)N(Cc2ccc(-c3cccc(C(C)C(=O)O)c3)cc2)Cc2ccc(C(F)(F)F)o2)c1C (centres unmarked)
2. Cc1ccc2ccccc2c1C(=O)N(Cc1ccc(C(F)(F)F)o1)Cc1ccc(-c2cccc(S(=O)(=O)CC(=O)O)c2)cc1Cl
3. Cc1cc(C)c(CCN(Cc2ccc(-c3cccc(S(=O)(=O)CC(=O)O)c3)cc2)Cc2ccc(C(F)(F)F)o2)c(C)c1
4. Cc1cc(C)c(CN(Cc2ccc(-c3cccc(C(C)(C)C(=O)O)c3)cc2)Cc2ccc(C(F)(F)F)o2)c2c1CCC2
5. Cc1cc(C)c(CN(Cc2ccc(-c3cccc(S(=O)(=O)CC(=O)O)c3)cc2)Cc2ccc(C(=O)N(C)C)o2)c(C)c1

result:
1: > 7.00; 2: 6.00 to 7.00; 3: 5.00 to 6.00; 4: > 7.00; 5: 5.00 to 6.00
